# reported melting point; entries follow
MEASUREMENT KIND: melting point

MOL SMILES: O=C(O)c1cccc(-c2nc(-c3ccc(C(F)(F)F)cc3)no2)c1
MEASUREMENT KIND: melting point
RESULT: 249.5 to 251 °C

MOL SMILES: Cc1cccc(-c2ccc(-c3nnc(-c4cccc(C(=O)O)c4)o3)cc2)c1
MEASUREMENT KIND: melting point
RESULT: 240 to 242 °C

MOL SMILES: O=C(O)c1ccc(-c2nnc(-c3ccnc(Br)c3)o2)cc1
MEASUREMENT KIND: melting point
RESULT: 275 to 278 °C

MOL SMILES: O=C(O)c1ccc(-c2cc(-c3ccc(F)cc3)no2)cc1
MEASUREMENT KIND: melting point
RESULT: 322 to 323 °C

MOL SMILES: CC(C)c1ccc(-c2csc(-c3cccc(C(=O)O)c3)c2)cc1
MEASUREMENT KIND: melting point
RESULT: 220 to 222 °C

MOL SMILES: CC(C)c1ccc(-c2nnc(-c3ccc(C(=O)O)cc3)o2)cc1
MEASUREMENT KIND: melting point
RESULT: 262 to 265 °C

MOL SMILES: O=C(O)c1ccc(-c2ncc(-c3ccc4c(c3)OCCO4)o2)cc1
MEASUREMENT KIND: melting point
RESULT: 308 to 309 °C

MOL SMILES: CN(C)c1ccccc1-c1nnc(-c2ccc(C(=O)O)cc2)o1
MEASUREMENT KIND: melting point
RESULT: 177 to 178 °C

MOL SMILES: CN(C)c1ccc(-c2nnc(-c3cccc(C(=O)[O-])c3)o2)cc1.[Na+]
MEASUREMENT KIND: melting point
RESULT: 227 to 235 °C (dec.)

====

# reported melting point; entries follow

MOLECULE: CC(C)c1ccc(-c2nsc(-c3cccc(C(=O)O)c3)n2)cc1
melting point: 166 to 168 °C
--
MOLECULE: CC(C)(C)C1CCC(c2nnc(-c3cccc(C(=O)O)c3)o2)CC1 (stereo not shown)
melting point: 245 to 247 °C
--
MOLECULE: CCOc1ccc(-c2cnc(-c3cccc(C(=O)O)c3)o2)cc1
melting point: 223 to 224 °C
--
MOLECULE: O=C(O)c1ccc(-c2cc(-c3ccc(F)cc3F)no2)cc1
melting point: 324 to 326 °C
--
MOLECULE: O=C(O)c1ccc(-c2nnc(-c3ccccc3)o2)cc1
melting point: > 275 °C
--
MOLECULE: O=C(O)c1cccc(-c2cc(-c3ccc(F)cc3)[nH]n2)c1
melting point: 270.5 to 272 °C
--
MOLECULE: O=C(O)c1ccc(-c2cc(-c3cccc(F)c3)no2)cc1
melting point: 319 to 321 °C
--
MOLECULE: CC(C)c1ccc(-c2cnc(-c3cccc(C(=O)O)c3)o2)cc1
melting point: 150 to 153 °C
--
MOLECULE: O=C(O)c1ccc(-c2ncc(-c3cccc(OCc4ccccc4)c3)o2)cc1
melting point: 210 to 211 °C
--
MOLECULE: CC(=O)Nc1cccc(-c2nnc(-c3ccc(C(=O)O)cc3)o2)c1
melting point: > 275 °C
--
MOLECULE: O=C(O)c1cccc(-c2nnc(-c3ccc(N4CCN(c5ccccc5)CC4)cc3)o2)c1
melting point: 279 to 282 °C
--
MOLECULE: O=C(O)c1cccc(-c2cc(-c3ccc(Br)cc3F)on2)c1
melting point: 283.5 to 285 °C
--
MOLECULE: Cc1ccccc1-c1cnc(-c2cccc(C(=O)O)c2)o1
melting point: 207 to 208 °C
--
MOLECULE: O=C(O)c1ccc(-c2ncc(-c3cc(F)cc(F)c3)o2)cc1
melting point: 273 to 274 °C
--
MOLECULE: O=C(O)c1ccc(-c2ncc(-c3cccc(Cl)c3)o2)cc1
melting point: 272 to 274 °C
--
MOLECULE: O=C(O)c1ccc(-c2ncc(-c3cccc(C(F)(F)F)c3)o2)cc1
melting point: 286 to 287 °C
--
MOLECULE: CC(C)c1cccc(-c2cnc(-c3cccc(C(=O)O)c3)o2)c1
melting point: 213 to 215 °C
--
MOLECULE: CC(C)c1ccc(-c2nnc(-c3cccc(C(=O)O)c3)o2)cc1
melting point: 202 to 204 °C
--
MOLECULE: O=C(O)c1cccc(-c2cc(-c3ccccc3)on2)c1
melting point: 245 to 247 °C
